biological target: human melanocortin 4 receptor (human, UniProt P32245 1-332); assay: cell-based or functional assay
Sequence (P32245 whole entry): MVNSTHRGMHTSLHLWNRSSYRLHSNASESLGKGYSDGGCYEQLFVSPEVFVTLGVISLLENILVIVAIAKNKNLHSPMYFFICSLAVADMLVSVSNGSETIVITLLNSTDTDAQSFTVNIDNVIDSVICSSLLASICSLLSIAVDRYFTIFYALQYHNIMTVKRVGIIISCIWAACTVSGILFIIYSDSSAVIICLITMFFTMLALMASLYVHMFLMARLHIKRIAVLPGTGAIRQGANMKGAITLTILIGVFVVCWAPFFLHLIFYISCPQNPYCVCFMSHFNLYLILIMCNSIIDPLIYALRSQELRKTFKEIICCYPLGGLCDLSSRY
Positions of bridges follow the written chain, without caps; N, C: chain ends. Non-standard residues stand in square brackets, D forms with d. 2Nal = N[C@@H](Cc1ccc2ccccc2c1)C(=O)O; Pen = CC(C)(S)[C@H](N)C(=O)O; Thz = O=C(O)[C@@H]1CSCN1
Exercise: state measured MC4R cAMP EC50 for each of the binders provided.
Answers are plain numbers, in pM.

Consider the following illustrative entries.
{"columns": ["binder", "MC4R cAMP EC50, pM"],
 "data": [
  ["cyclo(CKH[dF]HWCKH[dF]HW) (disulfide 1-7; SMILES NCCCC[C@@H]1NC(=O)[C@@H]2CSSC[C@H](NC(=O)[C@H](Cc3c[nH]c4ccccc34)NC(=O)[C@H](Cc3c[nH]cn3)NC(=O)[C@@H](Cc3ccccc3)NC(=O)[C@H](Cc3c[nH]cn3)NC1=O)C(=O)N[C@@H](CCCCN)C(=O)N[C@@H](Cc1c[nH]cn1)C(=O)N[C@H](Cc1ccccc1)C(=O)N[C@@H](Cc1c[nH]cn1)C(=O)N[C@@H](Cc1c[nH]c3ccccc13)C(=O)N2, also called c[c[Cys-Lys-His-D-Phe-His-Trp-Cys]-Lys-His-D-Phe-His-Trp]) [Chem. 52]", 230],
  ["cyclo(C[Thz]H[dF]HW[Pen]KKAAW) (disulfide 1-7; SMILES C[C@@H]1NC(=O)[C@H](C)NC(=O)[C@H](CCCCN)NC(=O)[C@H](CCCCN)NC(=O)[C@H]2NC(=O)[C@H](Cc3c[nH]c4ccccc34)NC(=O)[C@H](Cc3c[nH]cn3)NC(=O)[C@@H](Cc3ccccc3)NC(=O)[C@H](Cc3c[nH]cn3)NC(=O)[C@@H]3CSCN3C(=O)[C@H](CSSC2(C)C)NC(=O)[C@H](Cc2c[nH]c3ccccc23)NC1=O) [Chem. 117]", 200]
]}

Turning now to a further record.
INPUT: Which MC4R cAMP EC50 value is on record for cyclo(CAH[dF]R[2Nal]CAKKKW) (disulfide 1-7; SMILES C[C@@H]1NC(=O)[C@@H]2CSSC[C@H](NC(=O)[C@H](Cc3ccc4ccccc4c3)NC(=O)[C@H](CCCNC(=N)N)NC(=O)[C@@H](Cc3ccccc3)NC(=O)[C@H](Cc3c[nH]cn3)NC1=O)C(=O)N[C@@H](C)C(=O)N[C@@H](CCCCN)C(=O)N[C@@H](CCCCN)C(=O)N[C@@H](CCCCN)C(=O)N[C@@H](Cc1c[nH]c3ccccc13)C(=O)N2, also called c[c[Cys-Ala-His-D-Phe-Arg-2-Nal-Cys]-Ala-Lys-Lys-Lys-Trp]) [Chem. 79] ?
OUTPUT: 20
